# assay: Inhibition of wild type HIV reverse transcriptase in presence of poly(rA) 300 template, (dT) 16 primer
# Parameters: species or system Human immunodeficiency virus
pIC50: −log10 of the molar value.
reported.property: pIC50

* CCc1nn(CCO)c(CC)c1Sc1cc(Cl)cc(Cl)c1 | 7.19
* CCc1nn(CCO)c(CC)c1Oc1cc(F)ccc1F | 6.09
* CCc1nn(CCO)c(CC)c1Cc1cc(Cl)cc(Cl)c1 | 6.18
* COc1c(Cc2cc(Cl)cc(Cl)c2)c(C)nn1CCO | 5.20

[A] CCc1nn(CCO)c(CC)c1Oc1cncc(C)c1
[B] CCc1nn(CCO)c(CC)c1Oc1cccc(F)c1
[C] CCc1nn(CCO)c(CC)c1C(=O)c1cc(Cl)cc(Cl)c1
[D] Cc1c(Cc2cc(Cl)cc(Cl)c2)c(N(C)C)nn1CCO
query: Task for the reader: rank each entry by its pIC50, from the minimum upward. Please, when replying, give the labels in the order that was requested.
result: D, A, C, B
